Tested on: TA 1535
Experimental parameters: TA 1535, 50 μM
Items are presented alongside their recorded Mean ± SD.

# Structure smiles, Mean ± SD
measured = [
    ("Cc1nc2c(c(N3CCCN(Cc4ccccc4)CC3)n1)CCCC2", "2.5 ± 2.12 revertant colonies per plate"),
    ("O=C(Cn1cnc2c1CCCC2)Nc1ccc(-c2ccccc2)cc1", "1 ± 0 revertant colonies per plate"),
    ("CC(C)(C)Sc1ccc(NC(=O)Cn2ccnc2)cc1", "1.5 ± 0.7 revertant colonies per plate"),
    ("CC(C)c1nccn1CC(=O)Nc1ccc(-c2ccccc2)cc1", "0 ± 0 revertant colonies per plate"),
    ("O=C(Cn1ccnc1-c1ccccn1)Nc1ccc(-c2ccccc2)cc1", "1 ± 0 revertant colonies per plate"),
]

* * *

Test system: TA 98
Run description: Ames Test, strain TA 98
Experimental parameters: TA 98, 200 μM
From the text: The test used amino acid-dependent strains of Salmonella typhimurium and Escherichia coli to detect point mutations which involved substitution, addition or deletion of one or a few DNA base pairs. […] The test detected mutations that revert the mutations present in the bacteria, restoring the functional capability to synthesize histidine or tryptophan. The revertant bacteria were detected by the ability to grow in the absence of the amino acid required by the parent test strain. […]
Items are presented alongside their recorded Mean ± SD.
Property name: Mean ± SD

# Compound, Experimental value
data = [
    ("O=C(Cn1cnc2c1CCCC2)Nc1ccc(-c2ccccc2)cc1 [Compound 1]", "0 ± 0 revertant colonies per plate"),
    ("Cc1nc2c(c(N3CCCN(Cc4ccccc4)CC3)n1)CCCC2 [Compound 31]", "1 ± 1.41 revertant colonies per plate"),
    ("CC(C)c1nccn1CC(=O)Nc1ccc(-c2ccccc2)cc1 [Compound 2]", "0.5 ± 0.7 revertant colonies per plate"),
    ("O=C(Cn1ccnc1-c1ccccn1)Nc1ccc(-c2ccccc2)cc1 [Compound 4]", "0 ± 0 revertant colonies per plate"),
    ("CC(C)(C)Sc1ccc(NC(=O)Cn2ccnc2)cc1 [Compound 3]", ">1000 revertant colonies per plate"),
]

* * *

Test system: wp2[pKM101]+wp2 uvrA mixed 1:2
Run description: Ames Test, E. coli
Experimental parameters: 50 μM (row printed 100; conc. column shifted)
Items are presented alongside their recorded Mean ± SD.
Property name: Mean ± SD

# Compound, Property name, Experimental value
rows = [
    ("CC(C)c1nccn1CC(=O)Nc1ccc(-c2ccccc2)cc1 [Compound 2]", "Mean ± SD", "2.5 ± 2.12 revertant colonies per plate"),
    ("O=C(Cn1cnc2c1CCCC2)Nc1ccc(-c2ccccc2)cc1 [Compound 1]", "Mean ± SD", "0 ± 0 revertant colonies per plate"),
    ("CC(C)(C)Sc1ccc(NC(=O)Cn2ccnc2)cc1 [Compound 3]", "Mean ± SD", "4 ± 0 revertant colonies per plate"),
    ("Cc1nc2c(c(N3CCCN(Cc4ccccc4)CC3)n1)CCCC2 [Compound 31]", "Mean ± SD", "4.5 ± 3.53 revertant colonies per plate"),
    ("O=C(Cn1ccnc1-c1ccccn1)Nc1ccc(-c2ccccc2)cc1 [Compound 4]", "Mean ± SD", "3 ± 1.41 revertant colonies per plate"),
]

* * *

Test system: TA 1535
Experimental parameters: TA 1535, 100 μM

# Compound, Mean ± SD
rows = [
    ("O=C(Cn1ccnc1-c1ccccn1)Nc1ccc(-c2ccccc2)cc1 [Compound 4]", "1.5 ± 0.7 revertant colonies per plate"),
    ("CC(C)c1nccn1CC(=O)Nc1ccc(-c2ccccc2)cc1 [Compound 2]", "3 ± 0 revertant colonies per plate"),
    ("O=C(Cn1cnc2c1CCCC2)Nc1ccc(-c2ccccc2)cc1 [Compound 1]", "0 ± 0 revertant colonies per plate"),
    ("CC(C)(C)Sc1ccc(NC(=O)Cn2ccnc2)cc1 [Compound 3]", "0 ± 0 revertant colonies per plate"),
    ("Cc1nc2c(c(N3CCCN(Cc4ccccc4)CC3)n1)CCCC2 [Compound 31]", "1 ± 0 revertant colonies per plate"),
]
